From: patent US20170210741A1

Tested on: HCT116
Assay: In vitro cell viability assay (Cell Titer Glo), colorectal cancer HCT116
Assay type: cell-based
Conditions: Homo sapiens, HCT-116; HCT116, adherent, 72 h; read-out: Cell viability (IC50) HCT116 Adherent
quantity kind: pIC50
Reminder that pIC50 is minus the log10 of a molar concentration.

Report pIC50 for FC(F)(F)Oc1ccc(-c2nc3cc(Cl)c(Cl)cc3[nH]2)cc1 [Compound 6] please.
5.42

Need pIC50 of Clc1cc2nc(-c3ccc(N4CCCC4)cc3)[nH]c2cc1Cl [Compound 12] , thanks.
5.93

Any idea what its pIC50 is? The compound is Clc1cc2nc(-c3ccc(N4CCCCC4)cc3)[nH]c2cc1Cl [Compound 11]
6.00

Could you share which pIC50 value was measured for Fc1cc2[nH]c(-c3ccc(N4CCCC4)cc3)nc2cc1Cl [Compound 31] ?
6.24

Given CN1CCN(c2ccc(-c3nc4cc(Cl)c(Cl)cc4[nH]3)cc2F)CC1 [Compound 27] , state its recorded pIC50.
6.08

// returns reported pIC50 for input Oc1ccc(Cl)cc1-c1nc2cc(Cl)c(Cl)nc2[nH]1 [Compound 9]
5.68

Form field: reported pIC50 of c1cc2[nH]c(-c3ccc(N4CCCC4)cc3)nc2cn1 [Compound 28]
6.96

Quick check: pIC50 of Oc1ccc(F)cc1-c1nc2cc(Cl)c(F)cc2[nH]1 [Compound 3] ?
5.79

Fill in: pIC50 of CN1CCN(c2ccc(-c3nc4cc(Cl)c(Cl)cc4[nH]3)cc2)CC1 [Compound 10] is ___
4.95

----------
Test system: S2VP10
Experiment: In vitro cell viability assay (Cell Titer Glo), pancreatic cancer S2VP10
Type: cell-based
Settings: S2VP10, CSC enriching serum free medium, non-adherent plates, 72 h; read-out: Cell viability (IC50) S2VP10 CSC
Would you kindly list pIC50 for each of these compounds?
# pIC50: negative log10 of molar concentration; output just the value

Give the measured pIC50 of Oc1ccc(Cl)cc1-c1nc2cc(Cl)c(Cl)nc2[nH]1 [Compound 9] .
6.06

Report pIC50 for FC(F)(F)Oc1ccc(-c2nc3c(Cl)cc(Cl)cc3[nH]2)cc1 [Compound 8] please.
6.11

Looking for the measured pIC50 of FC(F)(F)Oc1ccc(-c2nc3cc(Cl)c(Cl)cc3[nH]2)cc1 [Compound 6] , can you help?
6.23

Need pIC50, item FC(F)(F)Oc1ccc(-c2nc3cc(C(F)(F)F)c(Cl)cc3[nH]2)cc1 [Compound 26]
6.02

Report pIC50 for CCN1CCN(c2ccc(-c3nc4cc(Cl)c(Cl)cc4[nH]3)cc2)CC1 [Compound 14] please.
5.88

Tell me the measured pIC50 of CN1CCN(c2ccc(-c3nc4ccncc4[nH]3)cc2)CC1 [Compound 20] , please.
6.74

Query: pIC50; subject: FC(F)(F)c1cc2nc(-c3ccc(N4CCCC4)cc3)[nH]c2cc1Cl [Compound 32]
6.22

What pIC50 value was documented for this compound, FC(F)(F)c1cc(Cl)c2[nH]c(-c3ccc(N4CCCCC4)cc3)nc2c1 [Compound 36] ?
5.53

Which pIC50 value is on record for CN1CCN(c2ccc(-c3nc4ccc(C(F)(F)F)cc4[nH]3)cc2)CC1 [Compound 18] ?
5.82

What measured pIC50 goes with Clc1cc2nc(-c3ccc(-n4ccnc4)cc3)[nH]c2cc1Cl [Compound 15] ?
5.87

Item under review: FC(F)(F)c1ccc2[nH]c(-c3ccc(N4CCCCC4)cc3)nc2c1 [Compound 29] . Reported pIC50?
5.97

Which pIC50 value is on record for Oc1ccc(F)cc1-c1nc2c(Cl)cc(Cl)cc2[nH]1 [Compound 1] ?
6.04

Look up pIC50 for this compound: Fc1cc2[nH]c(-c3ccc(OC(F)(F)F)cc3)nc2cc1C(F)(F)F [Compound 25]
5.56

# query: pIC50 of entry FC(F)(F)c1ccc(-c2nc3c(Cl)cc(Cl)cc3[nH]2)cc1 [Compound 7]
6.11

What pIC50 value was documented for this compound, Oc1c(Cl)cccc1-c1nc2cc(C(F)(F)F)ccc2[nH]1 [Compound 5] ?
6.68

What value of pIC50 has been reported for the following compound? CN1CCN(c2ccc(-c3nc4cc(Cl)c(Cl)cc4[nH]3)cc2)CC1 [Compound 10]
6.04
